system: HCV Replicon IB; assay: HCV replicon assay in Huh-7 cells, genotype 1b (Rluc luciferase readout); format: cell-based, hepatitis C virus; conditions: Hepatitis C virus, 72 h; 10 uM; 1b-Rluc replicon, Huh-7 cells, 3 days; read-out: Inhibition @ 10 uM in 1b-Rluc
quantity-kind: inhibition at 10 µM (%)

- molecule: "Cc1cc(C(=O)NCC(O)Cc2ccccc2)nc2c(C(F)(F)F)cc(-c3ccccc3)cc12 (stereo not shown)"
  assayed-system: "HCV Replicon IB"
  assay-result: 93
- molecule: "Cc1cc(C(=O)NCc2ccccn2)nc2c(C(F)(F)F)cc(N(C)S(C)(=O)=O)cc12"
  assayed-system: "HCV Replicon IB"
  assay-result: 98.9
- molecule: "CCCCN(C)c1cc(C(F)(F)F)c2nc(C(=O)NCc3ccccn3)cc(C)c2c1"
  assayed-system: "HCV Replicon IB"
  assay-result: 80.4
- molecule: "Cc1cc(C(=O)NC[C@@H]2COCCN2)nc2c(C(F)(F)F)cc(C3CC3(F)F)cc12 (stereo partly shown)"
  assayed-system: "HCV Replicon IB"
  assay-result: 99.7
- molecule: "Cc1cc(C(=O)NC[C@H]2CCCO2)nc2c(C(F)(F)F)cc(C3CC3)cc12"
  assayed-system: "HCV Replicon IB"
  assay-result: 100
- molecule: "O=C(NCc1ccccn1)c1cnc2cc(-c3ccccc3)cc(C(F)(F)F)c2n1"
  assayed-system: "HCV Replicon IB"
  assay-result: 86.3
- molecule: "Cc1cc(-c2nnc(NCCCN3CCOCC3)o2)nc2c(C(F)(F)F)cc(C3CC3)cc12"
  assayed-system: "HCV Replicon IB"
  assay-result: 80.9
- molecule: "Cc1cc(C(=O)N/C=C/Cc2ccccc2)nc2c(C(F)(F)F)cc(-c3ccccc3)cc12"
  assayed-system: "HCV Replicon IB"
  assay-result: 92.5
- molecule: "Cc1cc(-c2nnc(NS(C)(=O)=O)s2)nc2c(C(F)(F)F)cc(C3CC3)cc12"
  assayed-system: "HCV Replicon IB"
  assay-result: 70.7
- molecule: "Cc1cc(-c2nnc(NCCCNS(C)(=O)=O)s2)nc2c(C(F)(F)F)cc(C3CC3)cc12"
  assayed-system: "HCV Replicon IB"
  assay-result: 51.3
- molecule: "O=C(NCC1(O)CC1)c1cc(Cl)c2cc(C3CC3)cc(C(F)(F)F)c2n1"
  assayed-system: "HCV Replicon IB"
  assay-result: 94.8
- molecule: "CCCCNc1nnc(-c2cc(C)c3cc(C4CC4)cc(C(F)(F)F)c3n2)o1"
  assayed-system: "HCV Replicon IB"
  assay-result: 100
- molecule: "CCC(O)CNC(=O)c1cc(C)c2cc(-c3ccccc3)cc(C(F)(F)F)c2n1 (stereo not shown)"
  assayed-system: "HCV Replicon IB"
  assay-result: 96.5
- molecule: "Nc1cc(C(=O)NCC2(O)CC2)nc2c(C(F)(F)F)cc(C3CC3)cc12"
  assayed-system: "HCV Replicon IB"
  assay-result: 98.8
- molecule: "O=C(NCc1ccccn1)c1cc(C2CC2)c2cc(C3CC3)cc(C(F)(F)F)c2n1"
  assayed-system: "HCV Replicon IB"
  assay-result: 92.6
- molecule: "Cc1cc(C(=O)NCc2cc(C(F)(F)F)ccn2)nc2c(C(F)(F)F)cc(C3CC3)cc12"
  assayed-system: "HCV Replicon IB"
  assay-result: 100

// data source = patent US20120053148A1
